Would you kindly list IC50 for each of these compounds?
Molecular target: Recombinant full-length human IDO1 (Homo sapiens, UniProt P14902)
Construct: Recombinant full-length human IDO1 with a N-terminal hexahistidine tag; hexahistidine (His6) (N); made in house; host or cells: E. coli
Sequence (P14902 whole entry): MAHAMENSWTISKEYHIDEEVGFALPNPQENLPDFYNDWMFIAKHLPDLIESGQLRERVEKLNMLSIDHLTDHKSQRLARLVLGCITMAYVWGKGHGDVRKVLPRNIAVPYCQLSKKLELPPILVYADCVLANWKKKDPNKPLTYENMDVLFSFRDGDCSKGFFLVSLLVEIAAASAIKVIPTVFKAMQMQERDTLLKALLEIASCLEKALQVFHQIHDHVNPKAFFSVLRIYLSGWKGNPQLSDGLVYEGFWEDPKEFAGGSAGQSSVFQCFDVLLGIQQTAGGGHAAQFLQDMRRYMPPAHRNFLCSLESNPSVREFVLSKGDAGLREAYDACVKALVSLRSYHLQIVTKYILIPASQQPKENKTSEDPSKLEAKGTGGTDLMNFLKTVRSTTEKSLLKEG
Test: IDO1 enzymatic assay (NFK quantified by LCMS)
Assay type: biochemical
Details: 2 nM enzyme, 5 μM L-tryptophan, pH6.5, 30 minutes pre-incubation at RT; mean values when measured multiple times; read-out: hIDO activity (IC50 in nM)
Write the number in nM without appending the unit.

Task item: Item OC(c1cn(-c2ccc(Cl)cc2)nn1)c1c(C2CC2)sc2cncn12 (racemic) has what recorded IC50?
Reply: 21.9

Task item: Try the compound COc1ccc(-n2cc(C(O)c3c(C4CC4)sc4cncn34)nn2)c(F)c1Cl (racemic)
Reply: 28.9

Task item: Try the compound CC(C)(O)CCOc1ccc(-n2cc(C(O)c3c(C(C)(F)F)sc4cncn34)nn2)cc1Cl (racemic)
Reply: 13.9

Task item: Try the compound CC1(c2sc3cncn3c2C(O)c2cn(-c3ccc(O)c(Cl)c3)nn2)CC1 (racemic)
Reply: 12.1

Task item: Try the compound CCc1sc2cncn2c1C(O)c1cn(-c2ccc(NC(C)=O)cc2)nn1 (racemic)
Reply: 13.1

Task item: Try the compound CCNS(=O)(=O)c1ccc(-n2cc(C(O)c3c(CC)sc4cncn34)nn2)cc1 (racemic)
Reply: 47.2

Task item: Try the compound OCC1(c2ccc(-n3cc(C(O)c4c(C5CC5)sc5cncn45)nn3)cc2)CC1 (racemic)
Reply: 68.3

Task item: Try the compound CCc1sc2cncn2c1C(O)c1cn(-c2ccc3[nH]ccc3c2)nn1 (racemic)
Reply: 9.63

Task item: Try the compound OC(c1ccc(-c2ccccc2C(F)(F)F)s1)c1c(C2CC2)sc2cncn12 (racemic)
Reply: 550

Task item: Try the compound CC(C)Oc1ccc(-n2cc(C(O)c3c(C4CC4)sc4cncn34)nn2)cn1 (racemic)
Reply: 44.2

Task item: Try the compound OC(c1cn(-c2ccc3[nH]ncc3c2)nn1)c1c(C2CC2)sc2cncn12 (racemic)
Reply: 17.2

Task item: Try the compound COc1ccc(-n2nnc(C(O)c3c(C4CC4)sc4cncn34)c2C2CC2)cc1 (racemic)
Reply: 13.7

Task item: Try the compound C=C(C)c1sc2cncn2c1C(O)c1cn(-c2ccc(OCCC(C)(C)O)c(Cl)c2)nn1 (racemic)
Reply: 17.6

Task item: Try the compound CCc1sc2cncn2c1C(O)c1cn(-c2cc(F)c(OC)cc2F)nn1 (racemic)
Reply: 2.13

Task item: Try the compound Cc1sc2cncn2c1C(O)c1cc(-c2ccccc2)no1 (racemic)
Reply: 406

Task item: Try the compound OCCOc1ccc(-n2cc(C(O)c3c(C4CC4)sc4cncn34)nn2)cc1 (racemic)
Reply: 10.8

###

Biological target: Recombinant full-length human IDO1 (Homo sapiens)
Construct: Recombinant full-length human IDO1 with a N-terminal hexahistidine tag; hexahistidine (His6) (N); made in house; host or cells: E. coli
Experiment: IDO1 enzymatic assay (NFK quantified by LCMS)
Type: biochemical
Settings: 2 nM enzyme, 5 μM L-tryptophan, pH6.5, 30 minutes pre-incubation at RT; mean values when measured multiple times; read-out: hIDO activity (IC50 in nM)
Rule: IC50 below 20 nM gives True. Equal to or above 20 nM gives False.

Task item: Determine if Oc1cccc(Cn2cc(C(O)c3c(C4CC4)sc4cncn34)nn2)c1 (racemic) shows IC50 strictly lower than 20 nM.
Reply: False

Task item: Try the compound OC(c1cn(-c2ccc(OCc3ccccc3)cc2)nn1)c1c(C2CC2)sc2cncn12 (racemic)
Reply: False

Task item: Try the compound CS(=O)(=O)CCOc1ccc(-n2cc(C(O)c3c(C4CC4)sc4cncn34)nn2)cc1 (racemic)
Reply: False

Task item: Try the compound CCCCNC(=O)Nc1ccc(-n2cc(C(O)c3c(C4CC4)sc4cncn34)nn2)cc1 (racemic)
Reply: False

Task item: Try the compound COc1ccc(-n2cc(C(O)c3c(/C=C/C4CC4)sc4cncn34)nn2)cc1 (racemic)
Reply: False

Task item: Try the compound CCc1sc2cncn2c1C(O)c1cn(-c2ccc(C(=O)NC3CC3)cc2)nn1 (racemic)
Reply: True

Task item: Try the compound CC(F)(F)c1sc2cncn2c1C(O)c1cn(-c2ccc(O)c(Cl)c2)nn1 (racemic)
Reply: True

Task item: Try the compound CCc1sc2cncn2c1C(O)c1cn(-c2ccc(S(=O)(=O)NC)cc2)nn1 (racemic)
Reply: False

Task item: Try the compound CC(C)(O)CCOc1ccc(-n2cc(C(O)c3c(-c4ccccc4)sc4cncn34)nn2)cc1Cl (racemic)
Reply: False

Task item: Try the compound OC(c1cn(-c2cccnc2)nn1)c1c(C2CC2)sc2cncn12 (racemic)
Reply: False

Task item: Try the compound COCCOc1ccc(-n2cc(C(O)c3c(C4CC4)sc4cncn34)nn2)cc1 (racemic)
Reply: True

Task item: Try the compound CCc1sc2cncn2c1C(O)c1cn(-c2ccc(N)c(Cl)c2)nn1 (racemic)
Reply: True

Task item: Try the compound Oc1ccc(-n2cc(C(O)c3c(C4CC4)sc4cncn34)nn2)c(F)c1 (racemic)
Reply: True

Task item: Try the compound CCc1sc2cncn2c1C(O)c1cn(-c2ccc3[nH]c(=O)[nH]c3c2)nn1 (racemic)
Reply: False

Task item: Try the compound CCOc1ccc(-n2cc(C(O)c3c(C)sc4cncn34)nn2)cn1 (racemic)
Reply: False

Task item: Try the compound OC(c1cn(-c2ccc(OCCOCC(F)(F)F)cc2)nn1)c1c(C2CC2)sc2cncn12 (racemic)
Reply: False

Task item: Try the compound OC(c1cn(-c2cncc3ccccc23)nn1)c1c(C2CC2)sc2cncn12 (racemic)
Reply: True

Task item: Try the compound COc1ccc(-n2cc(C(O)c3c(C4CC4)sc4cncn34)nn2)cc1I (racemic)
Reply: False

Task item: Try the compound Oc1ccc(-n2cc(C(O)c3c(C4CC4)sc4cncn34)nn2)cc1F (racemic)
Reply: True

Task item: Try the compound OC(c1cn(-c2ccc(OCC3CCCO3)cc2)nn1)c1c(C2CC2)sc2cncn12 (racemic)
Reply: True

Task item: Try the compound C=CCNC(=O)c1ccc(-n2cc(C(O)c3c(C4CC4)sc4cncn34)nn2)cc1 (racemic)
Reply: True

Task item: Try the compound COc1ccc(-n2cc(C(O)c3c([C@@H]4C[C@@H]4F)sc4cncn34)nn2)cc1 (relative stereo)
Reply: False

Task item: Try the compound CC(F)(F)c1sc2cncn2c1C(O)c1cn(-c2ccc(OCCCO)c(Cl)c2)nn1 (racemic)
Reply: True

Task item: Try the compound COc1ccc(-n2cc(C(O)c3c(C4CC4)sc4cncn34)nn2)nc1OC (racemic)
Reply: False

Task item: Try the compound COc1ccc(-n2cc(C(O)c3c(C4CC4)sc4cncn34)nn2)c(OC)n1 (racemic)
Reply: False

Task item: Try the compound O[C@@H](c1cn(-c2ccc3[nH]ccc3c2)nn1)c1c(C2CC2)sc2cncn12 [Example 16a]
Reply: True

Task item: Try the compound CCc1sc2cncn2c1C(O)c1cn(-c2ccc(C(=O)NCCCO)cc2)nn1 (racemic)
Reply: True

Task item: Try the compound CCc1sc2cncn2c1C(O)c1cn(-c2ccc(OC)cc2)nn1 (racemic)
Reply: True

Task item: Try the compound O=S1(=O)CCC(COc2ccc(-n3cc(C(O)c4c(C5CC5)sc5cncn45)nn3)cc2)CC1 (racemic)
Reply: True

###

Molecular target: Recombinant full-length human IDO1 (Homo sapiens)
Construct: Recombinant full-length human IDO1 with a N-terminal hexahistidine tag; hexahistidine (His6) (N); made in house; host or cells: E. coli
Assay: IDO1 enzymatic assay (NFK quantified by LCMS)
Type: biochemical
Settings: 2 nM enzyme, 5 μM L-tryptophan, pH6.5, 30 minutes pre-incubation at RT; mean values when measured multiple times; read-out: hIDO activity (IC50 in nM)
Would you kindly list log10 IC50 for each of these compounds?
Scale: log10; quantity: IC50; unit before log: nM

Task item: Item CC(F)(F)c1sc2cncn2c1C(O)c1cn(-c2ccc(OCC3(F)COC3)c(Cl)c2)nn1 (racemic) has what recorded log10 IC50?
Reply: 1.11

Task item: Try the compound OC(c1cn(-c2ccc(OCC3(F)COC3)c(Cl)c2)nn1)c1c(-c2ccccc2)sc2cncn12 (racemic)
Reply: 2.25

Task item: Try the compound Oc1cc(-n2cc(C(O)c3c(C4CC4)sc4cncn34)nn2)ccc1Cl (racemic)
Reply: 0.98

Task item: Try the compound OC(c1cn(-c2ccc(OCC3CC3)c(Cl)c2)nn1)c1c(-c2ccccc2)sc2cncn12 (racemic)
Reply: 2.65

Task item: Try the compound COc1ccc(-n2nnc(C(O)c3c(C4CC4)sc4cncn34)c2C)cc1 (racemic)
Reply: 0.62

Task item: Try the compound OC(c1ccc(-c2ccc3[nH]ccc3c2)s1)c1c(C2CC2)sc2cncn12 (racemic)
Reply: 2.41

Task item: Try the compound CCc1sc2cncn2c1C(O)c1cn(-c2ccc(S(N)(=O)=O)cc2)nn1 (racemic)
Reply: 1.45
